tested on: MS2 coat protein; assay: apparent KD of MS2 coat protein, switch ON state; designed switch direction (-1 OFF switch, 1 ON switch): -1; higher = weaker reporter binding; conditions: FMN input: 0 or 200 uM; Eterna round: R93 (includes R88 designs)
Rule: satisfied for apparent KD of MS2 coat protein not less than 30 nM, not satisfied for anything less.

AGAUAGUCAGGAUAUACGAACAAGAAAAAAGACGAGAACGGACAUGAGGAUCACCCAUGUAGAAGGGACUAGCA [Diamond 10] ... satisfied

Exam item: decide whether the reported apparent KD of MS2 coat protein for AGUUAGCGAGGAUAUACAUGAGGAUCACCCAUGUGAGAGAAAAAAGUGAGAAAUAAAAGUAGAAGGCGCUAACA [Mat - Exclusion 3 - Eli mod - D69] is at least 30 nM.
satisfied

Exam item: decide whether the reported apparent KD of MS2 coat protein for AAAAAGCGAGGAUAUACAUGAGGAUCACCCAUGUGAGAGAAAAAAAGGAGAAAAAAAAGUAGAAGGCGCAAAAA [Abraham Harold Maslow] is at least 30 nM.
satisfied

Exam item: decide whether the reported apparent KD of MS2 coat protein for UGCAGGUGAGGAUAUGCGGGCGAGCUAACAUAAGCAUCGAAGCAGAAGGCACAUGAGGAUCACCCAUGUAGUCC [Ex4_Neo] is at least 30 nM.
not satisfied

Exam item: decide whether the reported apparent KD of MS2 coat protein for AAAAAGUGAGGAUAUACAUGAGGAUCACCCAUGUAAAAGGUCAGGGUGGCGGAGGACGGUAGAAGGCGCAAAAA [Excls3-IX] is at least 30 nM.
satisfied

Exam item: decide whether the reported apparent KD of MS2 coat protein for AAAACUGGAGGAUAUACGAACAUGUCGAAAGACGUGAAGGGACAUGAGGAUCACCCAUGUAGAAGGCUAGAAAA [Mat - Exclusion 2 - JL mod - D72] is at least 30 nM.
satisfied

====

system: MS2 coat protein; test: apparent KD of MS2 coat protein; designed switch direction (-1 OFF switch, 1 ON switch): 1; higher = weaker reporter binding; details: Eterna round: R95; input ligand: none
Measurement Label: apparent KD of MS2 coat protein (nM)
Unit nM implied. Number only.

Below are worked cases with known answers.
ACACCACAUGAGGAUCACCCAUGUGUCAAUAACACAGGAUAUCACCCGGAAUACACCGGGUGAGAAGGGUGACCGA [Gesois] (puzzle: Same State 1) ... 25.4
AGUCCAGCCUAAGCUGGACAAAAGCAUGUACAUGAGGAUCACCCAUGUUCAUGUACAAGCUUUUUGCUCGUCUUAAA [Mat - hsa-mir-208a - Mod of JL - 54] (puzzle: Sensor for hsa-mir-208a) ... 447
UAGAGAGGAAGCGAGGAUAUCGUGGGAGGAACAUGAGGAUCACCCAUGUGUGAUGUUGAGAGGAACGAGAAGGCGCAGGAAAGUA [JR_SS2_Sub078] (puzzle: Same State 2) ... 143
AUAAGUUCGAUGCUCGUCUCUCCGUACAAACAUGAGGAUCACCCAUGUGAUUGAGCAGUAGCCCAAUCAGUAUGGCC [Tileus] (puzzle: Sensor for hsa-mir-208a) ... 47.9

What value of apparent KD of MS2 coat protein on MS2 coat protein does UCUUGGUUUUUGCUCGUUUUUUGUGUUGAACAUGAGGAUCACCCAUGUAUUGUACGGUCCAGUUUGAUAGUGGUCCG [JMF 33] (puzzle: Sensor for hsa-mir-208a) have?
29.9
